Let's look at some compounds and their measured pIC50.
molecular target: Human immunodeficiency virus type 1 integrase (Human immunodeficiency virus 1, UniProt Q7ZJM1); experiment: Inhibitory activity against HIV-1 integrase
Sequence (Q7ZJM1 whole entry): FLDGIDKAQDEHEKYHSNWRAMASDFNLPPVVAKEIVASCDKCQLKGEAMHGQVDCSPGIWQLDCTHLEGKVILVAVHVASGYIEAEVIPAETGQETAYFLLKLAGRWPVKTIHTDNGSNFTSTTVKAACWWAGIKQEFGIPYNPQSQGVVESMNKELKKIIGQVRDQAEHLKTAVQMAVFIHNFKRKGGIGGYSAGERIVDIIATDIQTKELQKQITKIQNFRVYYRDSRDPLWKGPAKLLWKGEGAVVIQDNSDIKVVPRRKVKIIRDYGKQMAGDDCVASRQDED
pIC50: −log10 of the molar value.

# COMPOUND, VALUE_PREFIX, pIC50
rows = [
    ("CO[C@@H]1O[C@H](CO)[C@@H](O)[C@H](OC(=O)/C=C/c2ccc(O)c(O)c2)[C@H]1OC(=O)/C=C/c1ccc(O)c(O)c1", "=", 4.50),
    ("COc1cc(/C=C/C(=O)CC(=O)/C=C/c2ccc(O)c(OC)c2)ccc1O", "=", 4.24),
    ("CO[C@H]1O[C@H](COC(=O)/C=C/c2ccc(O)c(O)c2)[C@@H](O)[C@H](O)[C@H]1OC(=O)/C=C/c1ccc(O)c(O)c1", "=", 4.15),
    ("CO[C@H]1O[C@H](COC(=O)/C=C/c2ccc(O)c(O)c2)[C@@H](O)[C@H](OC(=O)/C=C/c2ccc(O)c(O)c2)[C@H]1O", "=", 4.08),
    ("COC1O[C@H](CO)[C@@H](O)[C@H](OC(=O)c2cc(O)c(O)c(O)c2)[C@H]1OC(=O)c1cc(O)c(O)c(O)c1 (stereo partly specified)", "=", 5.27),
    ("CO[C@H]1O[C@H](COC(=O)/C=C/c2ccc(O)c(O)c2)[C@@H](OC(=O)/C=C/c2ccc(O)c(O)c2)[C@H](OC(=O)/C=C/c2ccc(O)c(O)c2)[C@H]1OC(=O)/C=C/c1ccc(O)c(O)c1", "<", 3.93),
    ("C[C@@H]1O[C@@H](O[C@@H]2[C@@H](O)[C@H](OCCc3ccc(O)c(O)c3)O[C@H](CO)[C@H]2OC(=O)/C=C/c2ccc(O)c(O)c2)[C@H](O)[C@H](O)[C@H]1O [ACETOSIDE]", "=", 5.11),
    ("CO[C@@H]1O[C@H](COC(=O)/C=C/c2ccc(O)c(O)c2)[C@@H](OC(=O)/C=C/c2ccc(O)c(O)c2)[C@H](OC(=O)/C=C/c2ccc(O)c(O)c2)[C@H]1OC(=O)/C=C/c1ccc(O)c(O)c1", "=", 4.05),
    ("CO[C@H]1O[C@H](CO)[C@@H](O)[C@H](OC(=O)/C=C/c2ccc(O)c(O)c2)[C@H]1OC(=O)/C=C/c1ccc(O)c(O)c1", "=", 4.54),
    ("CO[C@@H]1O[C@H](COC(=O)/C=C/c2ccc(O)c(O)c2)[C@@H](O)[C@H](O)[C@H]1OC(=O)/C=C/c1ccc(O)c(O)c1", "=", 4.52),
    ("CO[C@@H]1O[C@H](COC(=O)/C=C/c2ccc(O)c(O)c2)[C@@H](O)[C@H](OC(=O)/C=C/c2ccc(O)c(O)c2)[C@H]1O", "=", 4.45),
]
